studyTarget: T1, human CD3 expressed on T cells (Jurkat cells, human pan T cells/PBMC) (human, UniProt P07766 23-207)
T1 construct: whole, on cells; On T cells CD3 epsilon stands in the CD3 complex with the gamma, delta and zeta chains and the T-cell receptor; only the epsilon chain is written out; also called CD3+ Jurkat cells; human T cells
T1 sequence (P07766 23-207): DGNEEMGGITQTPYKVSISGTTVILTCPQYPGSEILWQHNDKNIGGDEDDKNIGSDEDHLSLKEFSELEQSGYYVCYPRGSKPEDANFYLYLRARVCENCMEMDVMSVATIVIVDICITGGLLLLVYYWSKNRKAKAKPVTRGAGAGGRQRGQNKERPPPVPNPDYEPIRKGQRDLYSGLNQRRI
method: flow cytometry on human T cells
readoutLabel: EC50 (nM)
Numbers only, in nM.

Recorded EC50, per entry:
variant 18596, monovalent anti-CD3 scFv-heterodimeric Fc (VL hC3E-1, VH hC3E-1a D102E) (Fc fusion, not shown: a dimerising Fc or GST; small tags and cut ends, scFv order VH-(GGGGS)3-VL on Fc chain A; chain B is Fc only; also called v18596) scFv: EVQLVESGGGLVQPGGSLRLSCAASGVTFNYYGMSWIRQAPGKGLEWVASITNSGGRIYYPDSVKGRFTISRENTQKTLYLQMNSLRAEDTAVYYCTLDGREGWVAYWGQGTLVTVSSGGGGSGGGGSGGGGSNFMLTQPHSVSESPGKTVTISCKRNTGNIGSNYVNWYQQHEGSSPTTIIYRDDKRPDGVSDRFSGSIDRSSKSASLTISNLKTEDEADYFCQSYSSGFIFGGGTKLTVL: 69.5
variant 19371, monovalent anti-CD3 scFv-heterodimeric Fc (VL hC3E-1_1L1c, VH hC3E-1) (Fc fusion, scFv order VH-(GGGGS)3-VL on Fc chain A; chain B is Fc only; also called v19371; not shown: The Fc-only chain B is not tied by number to this variant) scFv: EVQLVESGGGLVQPGGSLRLSCAASGVTFNYYGMSWIRQAPGKGLEWVASITNSGGRIYYPDSVKGRFTISRENTQKTLYLQMNSLRAEDTAVYYCTLDGRDGWVAYWGQGTLVTVSSGGGGSGGGGSGGGGSQIVLTQPPSASGTPGQRVTISCKRNTGNIGSNYVNWYQQLPGTAPKLLIYRDDKRPDGVPDRFSGSKSGTSASLAISGLQSEDEADYYCQSYSSGFIFGGGTKLTVL: 0.5
variant 19370, monovalent anti-CD3 scFv-heterodimeric Fc (VL hC3E-1_1L1d, VH hC3E-1) (Fc fusion, not shown: a dimerising Fc or GST; small tags and cut ends, scFv order VH-(GGGGS)3-VL on Fc chain A; chain B is Fc only; also called v19370) scFv: EVQLVESGGGLVQPGGSLRLSCAASGVTFNYYGMSWIRQAPGKGLEWVASITNSGGRIYYPDSVKGRFTISRENTQKTLYLQMNSLRAEDTAVYYCTLDGRDGWVAYWGQGTLVTVSSGGGGSGGGGSGGGGSQVVLTQPPSASGTPGQRVTISCKRNTGNIGSNYVNWYQQLPGTAPKLLIYRDDKRPDGVPDRFSGSKSGTSASLAISGLQSEDEADYYCQSYSSGFIFGGGTKLTVL: 0.7
variant 21831, monovalent anti-CD3 scFv-heterodimeric Fc (VL hC3E-1_1L1d, VH hC3E-1(N53S)) (Fc fusion, scFv order VH-(GGGGS)3-VL on Fc chain A; chain B is Fc only; also called v21831; not shown: Fc-only chain B is also left out) scFv: EVQLVESGGGLVQPGGSLRLSCAASGVTFNYYGMSWIRQAPGKGLEWVASITSSGGRIYYPDSVKGRFTISRENTQKTLYLQMNSLRAEDTAVYYCTLDGRDGWVAYWGQGTLVTVSSGGGGSGGGGSGGGGSQVVLTQPPSASGTPGQRVTISCKRNTGNIGSNYVNWYQQLPGTAPKLLIYRDDKRPDGVPDRFSGSKSGTSASLAISGLQSEDEADYYCQSYSSGFIFGGGTKLTVL: 1
variant 19363, monovalent anti-CD3 scFv-heterodimeric Fc (VL hC3E-1_6L3a (D52N), VH hC3E-1) (Fc fusion, not shown: a dimerising Fc or GST; small tags and cut ends, scFv order VH-(GGGGS)3-VL on Fc chain A; chain B is Fc only; also called v19363) scFv: EVQLVESGGGLVQPGGSLRLSCAASGVTFNYYGMSWIRQAPGKGLEWVASITNSGGRIYYPDSVKGRFTISRENTQKTLYLQMNSLRAEDTAVYYCTLDGRDGWVAYWGQGTLVTVSSGGGGSGGGGSGGGGSQFVLTQPPSASGTPGQRVTISCKRNTGNIGSNYVNWYQQLPGTAPKTIIYRNDKRPDGVPDRFSGSIDSSSNSASLAISGLQSEDEADYYCQSYSSGFIFGGGTKLTVL: 0.7

Below are some binders; for each one, tell me its EC50.
1. variant 21829, monovalent anti-CD3 scFv-heterodimeric Fc (VL hC3E-1_1L1d, VH hC3E-1(N53R)) (Fc fusion, scFv order VH-(GGGGS)3-VL on Fc chain A; chain B is Fc only; also called v21829; not shown: Fc-only chain B is also left out) scFv: EVQLVESGGGLVQPGGSLRLSCAASGVTFNYYGMSWIRQAPGKGLEWVASITRSGGRIYYPDSVKGRFTISRENTQKTLYLQMNSLRAEDTAVYYCTLDGRDGWVAYWGQGTLVTVSSGGGGSGGGGSGGGGSQVVLTQPPSASGTPGQRVTISCKRNTGNIGSNYVNWYQQLPGTAPKLLIYRDDKRPDGVPDRFSGSKSGTSASLAISGLQSEDEADYYCQSYSSGFIFGGGTKLTVL
2. variant 19372, monovalent anti-CD3 scFv-heterodimeric Fc (VL hC3E-1_1L1b, VH hC3E-1) (Fc fusion, scFv order VH-(GGGGS)3-VL on Fc chain A; chain B is Fc only; also called v19372; not shown: The Fc-only chain B is not tied by number to this variant) scFv: EVQLVESGGGLVQPGGSLRLSCAASGVTFNYYGMSWIRQAPGKGLEWVASITNSGGRIYYPDSVKGRFTISRENTQKTLYLQMNSLRAEDTAVYYCTLDGRDGWVAYWGQGTLVTVSSGGGGSGGGGSGGGGSQLVLTQPPSASGTPGQRVTISCKRNTGNIGSNYVNWYQQLPGTAPKLLIYRDDKRPDGVPDRFSGSKSGTSASLAISGLQSEDEADYYCQSYSSGFIFGGGTKLTVL
3. variant 21826, monovalent anti-CD3 scFv-heterodimeric Fc (VL hC3E-1 (D52N), VH hC3E-1(N53R_D102E)) (Fc fusion, scFv order VH-(GGGGS)3-VL on Fc chain A; chain B is Fc only; also called v21826; not shown: Fc-only chain B is also left out) scFv: EVQLVESGGGLVQPGGSLRLSCAASGVTFNYYGMSWIRQAPGKGLEWVASITRSGGRIYYPDSVKGRFTISRENTQKTLYLQMNSLRAEDTAVYYCTLDGREGWVAYWGQGTLVTVSSGGGGSGGGGSGGGGSNFMLTQPHSVSESPGKTVTISCKRNTGNIGSNYVNWYQQHEGSSPTTIIYRNDKRPDGVSDRFSGSIDRSSKSASLTISNLKTEDEADYFCQSYSSGFIFGGGTKLTVL
4. variant 21828, monovalent anti-CD3 scFv-heterodimeric Fc (VL hC3E-1 (D52N), VH hC3E-1(N53S_D102E)) (Fc fusion, scFv order VH-(GGGGS)3-VL on Fc chain A; chain B is Fc only; also called v21828; not shown: Fc-only chain B is also left out) scFv: EVQLVESGGGLVQPGGSLRLSCAASGVTFNYYGMSWIRQAPGKGLEWVASITSSGGRIYYPDSVKGRFTISRENTQKTLYLQMNSLRAEDTAVYYCTLDGREGWVAYWGQGTLVTVSSGGGGSGGGGSGGGGSNFMLTQPHSVSESPGKTVTISCKRNTGNIGSNYVNWYQQHEGSSPTTIIYRNDKRPDGVSDRFSGSIDRSSKSASLTISNLKTEDEADYFCQSYSSGFIFGGGTKLTVL

Response given:
0.4
0.9
1.7
1.6
